Cited source for all entries: PubChem BioAssay (NCI)

- Tested on: KM12 colon
- Protocol text: NCI tumour cell line growth inhibition, 48 h
Observation type: TGI

| Compound | Value observed |
| --- | --- |
| O=C(N[C@@H](c1ccccc1)[C@@H](O)C(=O)OCc1ccc2c(c1)OCO2)c1ccccc1 | > 100 µM |
| COc1cccc2c1N[S@](=O)S2 | > 100 µM |
| COc1ccc(CC#C/C=C/C(=O)NCC(C)C)cc1 | > 100 µM |
| O=C(CSc1nc2ccccc2c2ccccc12)c1ccccc1 | > 100 µM |
| O=C(c1ccccc1)N1CCN2CCN=C(c3ccccc3)C21c1ccccc1 (centres undefined) | > 100 µM |
| NC1CCCCC1N.Nc1c(N=Nc2ccc(-c3ccc(N=Nc4cc(S(=O)(=O)[O-])c5ccccc5c4N)cc3)cc2)cc(S(=O)(=O)[O-])c2ccccc12.[OH3+].[OH3+].[Pt+4] | > 100 µM |
| COc1cccc(/C=N/[N-]C(=O)c2ccncc2)c1[O-].[Ni+2].[OH3+] | > 100 µM |
| Cc1cc(Nc2ccc(S(=O)(=O)O)cc2)c2ccccc2n1 | > 100 µM |
| CC(C)OC(=O)[C@@H]1OC(C)(C)O[C@H]1C(=O)OC(C)C | > 100 µM |

====

- Tested on: SNB-19 CNS
- Protocol text: NCI tumour cell line growth inhibition, 48 h
Catalogue of TGI values
Observation type: TGI

| Compound | Value observed |
| --- | --- |
| O=C(Cc1nc2ccccc2o1)C(=O)Nc1ccccc1C(F)(F)F | > 100 µM |
| O=C1C(Cl)=C(N2CCN(CCOCCO)CC2)C(=O)c2ncccc21 | > 10 µM |
| O=C(CC1(O)C(=O)Nc2c(Cl)ccc(Cl)c21)c1ccco1 (stereo not given) | > 100 µM |
| Cn1c(-c2ccccc2)cc(-c2ccsc2)c1-c1ccsc1 | > 100 µM |
| COc1ccc(/C=C/C(=O)c2cc3c(N)c(C(=O)Nc4cccc(Cl)c4C)sc3nc2C)cc1 | > 50 µM |
| O=C(Nc1ccc(OCc2nnc(-c3ccc(Cl)cc3)o2)c(F)c1)c1ccc(Cl)c(C(F)(F)F)c1 | > 50 µM |
| C#CCn1cnc2cnc(Nc3cccc(NC(=O)CCl)c3)nc21 | > 62.5 µM |
| CCOC(=O)C1=C(Cl)c2cccnc2C1=O | > 100 µM |
| c1ccc2cc(C[n+]3ccn(CCCCCCCCCCCCn4cc[n+](Cc5ccc6ccccc6c5)c4)c3)ccc2c1 | 3.49 µM |
| O=C(N[C@@H](c1ccccc1)[C@@H](O)C(=O)OCc1ccc2c(c1)OCO2)c1ccccc1 | > 100 µM |

====

- Tested on: UACC-62 melanoma
- Protocol text: NCI tumour cell line growth inhibition, 48 h
Consider the following molecules and their measured TGI readings.

| Molecule | TGI |
| --- | --- |
| CCO/C=N/C1=C(C#N)C(c2ccc(OC)cc2)c2sc3c(F)cccc3c2O1 (stereo unspecified) | > 100 µM |
| COC(=O)/C(=N\NC(=O)c1ccccc1O)C(C#N)c1ccccc1 (stereo unspecified) | > 32.8 µM |
| CC1=NC(C)(C)[N+]([O-])=C1 | > 10 µM |
| CC(C)OC(=O)[C@@H]1OC(C)(C)O[C@H]1C(=O)OC(C)C | > 100 µM |
| CCC(=O)/C=C/c1ccccc1 | > 100 µM |
| C#CCn1cnc2cnc(Nc3cccc(NC(=O)CCl)c3)nc21 | > 62.5 µM |

====

This listing pairs compounds with measured TGI.
- Tested on: SR leukemia
- Protocol text: NCI tumour cell line growth inhibition, 48 h

| Compound | Measurement target | TGI |
| --- | --- | --- |
| Cc1cc2c(O)c(c1)COCc1cc(C)cc(c1O)COCc1cc(C)cc(c1O)COC2 | SR leukemia | > 100 µM |
| O=C(CSc1nnc(SCC(=O)NN=C2CCCCC2)s1)NN=C1CCCCC1 | SR leukemia | > 100 µM |
| CC1=NC(C)(C)[N+]([O-])=C1 | SR leukemia | > 10 µM |
| O=[N+]([O-])c1cc(Cl)c(Cl)cc1[N+](=O)[O-] | SR leukemia | 4.98 µM |
| CC1CCC(=O)NCCCCC(=O)N1 (centres undefined) | SR leukemia | > 100 µM |
| COc1ccc(/C=C/C(=O)c2cc3c(N)c(C(=O)Nc4cccc(Cl)c4C)sc3nc2C)cc1 | SR leukemia | > 50 µM |
| N[C@]1(C(=O)O)C[C@@H]2C(Br)=NO[C@@H]2C1 | SR leukemia | > 100 µM |
| CCC(=O)c1cc(C(=O)C(=S)SC)cc(C(=O)C(=S)SC)c1 | SR leukemia | > 100 µM |
| Cc1ccc(O)c(-c2cc(-c3cccc(Br)c3)on2)c1 | SR leukemia | 99.4 µM |

====

- System: OVCAR-4 ovarian
- Protocol text: NCI tumour cell line growth inhibition, 48 h

| Compound | TGI |
| --- | --- |
| COc1ccc(C(=O)NCCC2CN(S(=O)(=O)C(F)(F)F)c3ccccc32)c(OC)c1 (configuration not stated) | > 100 µM |
| Cn1c(-c2ccccc2)cc(-c2ccsc2)c1-c1ccsc1 | > 100 µM |
| CC#CC#C/C=C1/O[C@]2(CCC(OC(=O)CC(C)C)CO2)[C@@H]2O[C@H]12 (some centres not stated) | > 100 µM |
| C[N+](C)(C)CCN(Cc1cccs1)c1ccccn1 | > 100 µM |
| COc1cc(OC)c2c(c1)C(=O)C(CC1(C)OCCCO1)=CC2=O | 19.7 µM |
| CCOC(=O)c1csc(NC(=O)CN(C)C)n1 | > 100 µM |
| CNC(=O)NCC1OC(n2cnc3c(NC(=O)Nc4ccccc4)ncnc32)C(O[Si](C)(C)C(C)(C)C)C1CC(=O)N(C)OC (configuration not stated) | > 100 µM |
| CCCCCCCCCCCCCC(=O)OC1C(O)C(CO)OC(OC)C1NC(=O)N(CCCl)N=O (configuration not stated) | > 100 µM |
| CC(C)=[CH][Sb]([Br])([CH]=C(C)C)([CH]=C(C)C)[c]1ccccc1 | > 100 µM |
| COC1=CC(=Nc2c(Cl)cc(Cl)cc2OC(=O)c2ccc([N+](=O)[O-])cc2)C=C(OC)C1=O | 21.9 µM |
| CCOC(=O)C1CCCCN1C(=O)OCc1ccccc1 (configuration not stated) | > 100 µM |
| COc1ccc2c(CCNC(C)=O)c(C(C)=O)[nH]c2c1 | > 100 µM |
| [N-]=[N+]=NCCCn1c2c(c3cc4c(cc3c1=O)OCO4)C(=O)c1ccccc1-2 | > 100 µM |
| O=C1C(Cl)=C(N2CCN(CCOCCO)CC2)C(=O)c2ncccc21 | > 10 µM |
| O=c1c(Cc2c(O)ccc3ccccc23)nnc2sc(-c3nn4c(=O)c(Cc5c(O)ccc6ccccc56)nnc4s3)nn12 | > 100 µM |
| CO[C@@H]1C[C@H](OC(N)=O)[C@@H]2C=C[C@@H]3/C=C(C)/C=C/[C@@H](C)[C@H]([C@H](C)[C@H](O)[C@@H](C)NC(C)=O)OC(=O)/C=C/C=C(C)\C=C\[C@]3(C)[C@@H]2C1 | 9.75 µM |
| c1ccc(C2(c3ccccc3)SSC3(S2)C2CC4CC(C2)CC3C4)cc1 (configuration not stated) | > 100 µM |
| CN(CCCCCl)P(=O)(OCC1=CC(=O)c2ccccc2C1=O)OC[C@H]1O[C@@H](n2cc(F)c(=O)[nH]c2=O)C[C@@H]1O (some centres not stated) | 14.9 µM |
| Cc1cc2nc(C#N)c(N3CCN(c4ccc([N+](=O)[O-])cc4)CC3)nc2cc1C | > 100 µM |
| NCCCOc1cc2ccccc2cc1C(=O)NCCOc1nc2ccccc2cc1C(=O)Nc1ccc(Cl)cc1O | 1.82 µM |
| COc1cc([C@@H]2c3cc4c(cc3[C@@H](Nc3ccc(N=Cc5ccc(C(=O)O[C@@H](C(=O)O[C@H]6C[C@@]7(O)[C@@H](OC(=O)c8ccccc8)[C@@H]8[C@]9(OC(C)=O)CO[C@@H]9C[C@H](O)[C@@]8(C)C(=O)[C@H](OC(C)=O)C(=C6C)C7(C)C)[C@@H](NC(=O)c6ccccc6)c6ccccc6)cc5)cc3)[C@H]3COC(=O)[C@H]23)OCO4)cc(OC)c1O | > 50 µM |
| Cc1cc2c(O)c(c1)COCc1cc(C)cc(c1O)COCc1cc(C)cc(c1O)COC2 | > 100 µM |
| CCN(CC)CCNc1ccc2nnn3c4ccc([N+](=O)[O-])cc4c(=O)c1c23 | 48.9 µM |
| Cc1[nH]c(=O)[nH]c(=S)c1C(=O)NC1C2CCCCC2NC2CCCCC21 (configuration not stated) | 50.7 µM |
| CCC(=O)c1cc(C(=O)C(=S)SC)cc(C(=O)C(=S)SC)c1 | > 100 µM |
| CC1=C(O)C(=O)C(C2=C(O)C(=O)C(C)=C(O)C2=O)=C(O)C1=O | > 100 µM |
| CNCC(=O)Nc1ccc2c(c1)C(=O)c1ccc(NC(=O)CNC)cc1C2=O | 5.68 µM |
| COc1ccc(O)c(/C=N/NC(=S)N2CCCCC2)c1 | > 100 µM |
| CC(=O)/C=C/c1ccc(OCc2ccc(C(C)(C)C)cc2)cc1 | > 1000 µM |
| COC(=O)/C=C/C1C2C3(CCC(C)C12C)OCCS3 (configuration not stated) | > 100 µM |
| COc1cccc(/C=N/[N-]C(=O)c2ccncc2)c1[O-].[Ni+2].[OH3+] | > 100 µM |
| COc1ccc(/C(=N/O)C(c2ccc(OC)cc2)C2C(=O)Oc3ccccc32)cc1 (configuration not stated) | > 100 µM |
